All values here come from paper PMC12163657.

- target: PR (Homo sapiens)
- Sequence (P06401 whole entry): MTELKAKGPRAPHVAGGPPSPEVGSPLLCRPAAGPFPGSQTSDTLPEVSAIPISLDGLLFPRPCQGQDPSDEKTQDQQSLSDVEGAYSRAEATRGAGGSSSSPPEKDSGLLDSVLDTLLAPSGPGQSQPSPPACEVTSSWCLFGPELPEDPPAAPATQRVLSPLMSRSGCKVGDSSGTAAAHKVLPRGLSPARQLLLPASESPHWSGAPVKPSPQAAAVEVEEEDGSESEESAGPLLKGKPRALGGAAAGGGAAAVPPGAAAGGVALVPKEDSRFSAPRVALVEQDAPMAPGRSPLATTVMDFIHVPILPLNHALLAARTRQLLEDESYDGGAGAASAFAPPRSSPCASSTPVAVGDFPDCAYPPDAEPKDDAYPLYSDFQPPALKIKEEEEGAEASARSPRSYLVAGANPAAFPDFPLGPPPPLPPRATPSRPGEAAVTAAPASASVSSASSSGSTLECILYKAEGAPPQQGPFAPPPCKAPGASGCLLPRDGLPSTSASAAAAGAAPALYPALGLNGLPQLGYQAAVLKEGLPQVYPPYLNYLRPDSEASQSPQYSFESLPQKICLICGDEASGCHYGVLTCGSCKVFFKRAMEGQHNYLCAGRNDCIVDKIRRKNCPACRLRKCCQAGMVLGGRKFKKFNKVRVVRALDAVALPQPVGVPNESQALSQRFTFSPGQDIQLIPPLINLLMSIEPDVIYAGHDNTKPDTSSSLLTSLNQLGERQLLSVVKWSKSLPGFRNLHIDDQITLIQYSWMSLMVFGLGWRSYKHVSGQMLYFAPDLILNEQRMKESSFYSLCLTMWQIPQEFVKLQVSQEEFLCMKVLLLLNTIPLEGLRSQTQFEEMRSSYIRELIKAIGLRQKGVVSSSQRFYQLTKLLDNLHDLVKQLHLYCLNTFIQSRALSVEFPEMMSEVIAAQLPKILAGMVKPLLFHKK
- assay: Reporter assay of gene transcription activity, PR
value.type: IC50

## Task Kindly state the measured IC50 obtained for CCCN1CC(Oc2ccc([C@@H]3c4[nH]c5ccccc5c4C[C@@H](C)N3CC(C)(C)F)cc2)C1 with PR (Homo sapiens).
## Result > 3.16 µM

====

Field: IC50. Provide a value for each of the compounds that follow.
- target: ERα LBD (Homo sapiens, UniProt P03372)
- Sequence (P03372 311-547 limits assumed): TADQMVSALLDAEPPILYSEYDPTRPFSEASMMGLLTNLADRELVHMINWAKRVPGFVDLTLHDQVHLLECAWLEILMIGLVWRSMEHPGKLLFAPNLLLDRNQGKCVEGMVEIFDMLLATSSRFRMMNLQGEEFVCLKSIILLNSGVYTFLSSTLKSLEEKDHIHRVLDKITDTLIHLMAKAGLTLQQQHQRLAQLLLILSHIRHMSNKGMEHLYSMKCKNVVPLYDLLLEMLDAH
- assay: LanthaScreen TR-FRET ERα competitive binding assay
Quick note: give the figure in nM, leave out the unit.

## Task Any idea what IC50 came out for CCCN1CC(Cc2ccc([C@@H]3c4[nH]c5ccccc5c4C[C@@H](C)N3CC(C)(C)F)cc2)C1 on ERα LBD (Homo sapiens, UniProt P03372)?
## Result 3.98

## Task Lookup: IC50 / ERα LBD (Homo sapiens, UniProt P03372) / CCCN1CC(Oc2ccc([C@@H]3c4[nH]c5ccccc5c4C[C@@H](C)N3C[C@H](C)CO)cc2)C1
## Result 0.501

## Task Request: IC50, test system ERα LBD (Homo sapiens, UniProt P03372), entry CCCN1CC(Oc2ccc([C@@H]3c4[nH]c5ccccc5c4C[C@@H](C)N3CC(C)(C)F)cc2F)C1
## Result 3.98

## Task Which IC50 is reported with ERα LBD (Homo sapiens, UniProt P03372) for this entry: C[C@@H]1Cc2c([nH]c3ccccc23)[C@@H](c2ccc(OCCN3CC(CF)C3)c(F)c2)N1CC(C)(C)F ?
## Result 2.51
